Tested on: T1, human IL-1β (human, UniProt P01584 117-269)
T1 construct: also called hIL-1β; rhIL-1 beta
Assay name: yeast surface Fab display, flow cytometry titration
pEC50: −log10 of the molar value.
We begin with a simple list: items and their reported pEC50.
Assay readout: pEC50

• ABT2-108-604/ABT1-122 Fab on yeast surface (Fab, V domains shown) VH: EVQLLESGGGLVQPGGSLRLSCAASGFTFAEYTMMWVRQAPGKGLEWVSRVTYDGKNTYYADSVKGRFTISRDNSKNTLYLQMNSLRAEDTAVYYCAKYTGRVGVHHLFDYWGQGTLVTVSS VL: DIQMTQSPSSLSASVGDRVTITCRASQPIWTELNWYQQKPGKAPKLLIYGSSSLQSGVPSRFSGSGSGTDFTLTISSLQPEDFATYYCQQFAYFPATFGQGTKVEIKR = 8.87
• ABT2-108-616/ABT1-122 Fab on yeast surface (Fab, V domains shown) VH: EVQLLESGGGLVQPGGSLRLSCAASGFTFAEYTMMWVRQAPGKGLEWVSRIGQDGKNTYYADSVKGRFTISRDNSKNTLYLQMNSLRAEDTAVYYCAKYTGRIYNHHLFDYWGQGTLVTVSS VL: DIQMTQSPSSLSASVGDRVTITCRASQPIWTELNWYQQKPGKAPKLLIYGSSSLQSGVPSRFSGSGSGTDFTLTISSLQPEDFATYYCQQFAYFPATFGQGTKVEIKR = 9.49
• ABT2-108-601/ABT1-122 Fab on yeast surface (Fab, V domains shown) VH: EVQLLESGGGLVQPGGSLRLSCAASGFTFAEESWMWVRQAPGKGLEWVSRIGQDGKNTYYADSVKGRFTISRDNSKNTLYLQMNSLRAEDTAVYYCAKYTGRVGVHHLFDYWGQGTLVTVSS VL: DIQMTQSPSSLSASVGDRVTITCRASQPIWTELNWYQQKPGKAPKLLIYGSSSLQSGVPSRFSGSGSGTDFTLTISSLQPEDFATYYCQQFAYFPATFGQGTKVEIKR = 9.28
• ABT2-108-603/ABT1-122 Fab on yeast surface (Fab, V domains shown) VH: EVQLLESGGGLVQPGGSLRLSCAASGFTFAEYTMMWVRQAPGKGLEWVSRITDAGKNTYYADSVKGRFTISRDNSKNTLYLQMNSLRAEDTAVYYCAKYTGRVGVHHLFDYWGQGTLVTVSS VL: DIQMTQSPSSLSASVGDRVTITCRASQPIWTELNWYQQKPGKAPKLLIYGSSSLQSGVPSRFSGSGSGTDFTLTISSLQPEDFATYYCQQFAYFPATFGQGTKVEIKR = 8.87
• ABT2-108-612/ABT1-122 Fab on yeast surface (Fab, V domains shown) VH: EVQLLESGGGLVQPGGSLRLSCAASGFTFAEYTMMWVRQAPGKGLEWVSRIGQDGKNTYYADSVKGRFTISRDNSKNTLYLQMNSLRAEDTAVYYCAKYTGRIMGHHLFDYWGQGTLVTVSS VL: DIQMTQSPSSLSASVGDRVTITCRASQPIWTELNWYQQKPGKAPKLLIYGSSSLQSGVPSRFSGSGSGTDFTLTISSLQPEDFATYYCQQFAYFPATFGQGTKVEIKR = 9.57
• ABT2-108-608/ABT1-122 Fab on yeast surface (Fab, V domains shown) VH: EVQLLESGGGLVQPGGSLRLSCAASGFTFAEYTMMWVRQAPGKGLEWVSRIGQDGKNTYTRDSVKGRFTISRDNSKNTLYLQMNSLRAEDTAVYYCAKYTGRVGVHHLFDYWGQGTLVTVSS VL: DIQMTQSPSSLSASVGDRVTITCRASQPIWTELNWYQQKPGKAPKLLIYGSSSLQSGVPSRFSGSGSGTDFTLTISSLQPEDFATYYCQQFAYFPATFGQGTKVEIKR = 9.44
• ABT2-108-602/ABT1-122 Fab on yeast surface (Fab, V domains shown) VH: EVQLLESGGGLVQPGGSLRLSCAASGFTFAEEKYMWVRQAPGKGLEWVSRIGQDGKNTYYADSVKGRFTISRDNSKNTLYLQMNSLRAEDTAVYYCAKYTGRVGVHHLFDYWGQGTLVTVSS VL: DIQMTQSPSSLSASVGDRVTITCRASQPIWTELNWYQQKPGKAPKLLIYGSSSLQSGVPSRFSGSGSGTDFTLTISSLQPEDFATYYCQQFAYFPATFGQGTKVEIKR = 9.32
